- test method notes: Inhibition of recombinant mouse N-terminal FLAG-tagged Notch1 (1704 to 2531 residues) expressed in human LS174T cells assessed as reduction in doxycycline-induced NICD expression after 12 hrs by Bright-Glo luciferase reporter gene assay
In this section we review reported IC50 values for a set of compounds.
measured quantity: IC50 (nM)

[[record]]
structure_smiles_string = "C[C@@H]1C[C@H](O)[C@]2(O)O[C@@H]3C[C@@]4(C=O)[C@@H](CC[C@@H]5[C@@H]4CC[C@]4(C)[C@@H](C6=CC(=O)OC6)CC[C@]54O)C[C@H]3O[C@@H]2O1"
measured_quantity = "IC50"
test_value = 800

[[record]]
structure_smiles_string = "C[C@@H]1C[C@@]2(N=CCS2)[C@]2(O)O[C@@H]3C[C@@]4(C=O)[C@@H](CC[C@@H]5[C@@H]4CC[C@]4(C)[C@@H](C6=CC(=O)OC6)CC[C@]54O)C[C@H]3O[C@@H]2O1"
measured_quantity = "IC50"
test_value = 400

[[record]]
structure_smiles_string = "C[C@@H]1C[C@@]2(NCCS2)[C@]2(O)O[C@@H]3C[C@@]4(C=O)[C@@H](CC[C@@H]5[C@@H]4CC[C@]4(C)[C@@H](C6=CC(=O)OC6)CC[C@]54O)C[C@H]3O[C@@H]2O1"
measured_quantity = "IC50"
test_value = 2000

[[record]]
structure_smiles_string = "C[C@@H]1C[C@@]2(N=CCS2)[C@]2(O)O[C@@H]3C[C@@]4(C=O)[C@@H](CC[C@@H]5[C@@H]4CC[C@]4(C)[C@@H](C6=CC(=O)OC6)[C@H](O)C[C@]54O)C[C@H]3O[C@@H]2O1"
measured_quantity = "IC50"
test_value = 700

[[record]]
structure_smiles_string = "C[C@@H]1C[C@@]2(NC(=O)CS2)[C@]2(O)O[C@@H]3C[C@@]4(C=O)[C@@H](CC[C@@H]5[C@@H]4CC[C@]4(C)[C@@H](C6=CC(=O)OC6)CC[C@]54O)C[C@H]3O[C@@H]2O1"
measured_quantity = "IC50"
test_value = 300

[[record]]
structure_smiles_string = "CC(=O)O[C@H]1C[C@@H](C)O[C@H]2O[C@@H]3C[C@@H]4CC[C@@H]5[C@H](CC[C@]6(C)[C@@H](C7=CC(=O)OC7)CC[C@]56O)[C@@]4(C=O)C[C@H]3O[C@]21O"
measured_quantity = "IC50"
test_value = 300

[[record]]
structure_smiles_string = "COC(=O)[C@@]1(O)C[C@@H](C)O[C@H]1O[C@@H]1C[C@@H]2CC[C@@H]3[C@H](CC[C@]4(C)[C@@H](C5=CC(=O)OC5)[C@H](O)C[C@]34O)[C@@]2(C=O)C[C@H]1O"
measured_quantity = "IC50"
test_value = 17300

[[record]]
structure_smiles_string = "C[C@@H]1CC(=O)[C@]2(O)O[C@@H]3C[C@@]4(C=O)[C@@H](CC[C@@H]5[C@@H]4CC[C@]4(C)[C@@H](C6=CC(=O)OC6)CC[C@]54O)C[C@H]3O[C@@H]2O1"
measured_quantity = "IC50"
test_value = 2400

